B1: MYBL2 (parent)
chain: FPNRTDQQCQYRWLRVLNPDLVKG

- Variants of: B1
- TEST PROTOCOL: protein stability index of a GFP-peptide fusion (GPS, HEK-293T) (PSI 1-6); higher = more stable;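 note: lentivirally expressed fusions sorted by FACS into six bins by GFP to DsRed ratio, PSI derived from sequencing read proportions per bin multiplied by bin number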
- MEASUREMENT CONDITIONS: c terminus: a fixed tail appended
READOUT LABEL: protein stability index
Kindly provide the number alone.

1) F1Y: 1.95
2) R4S: 1.95
3) Y11R: 1.97
4) C9V: 2.05
5) R4V: 1.96
6) L21Y: 1.98

With those in mind, consider the next variant.
Lookup: Fill in reported protein stability index for this entry: G24E
Found: 2.02
